The reported measurements were obtained from patent US8129371B2.

biological target: Human mTOR (FLAG-TOR) (Homo sapiens); construct: FLAG; test: Human mTOR kinase assay with purified enzyme, DELFIA format; assay type: biochemical; conditions: purified human mTOR enzyme, DELFIA format
pIC50: −log10 of the molar value.
measured property: pIC50

Consider the reported pIC50 for these molecules:
COC(=O)Nc1ccc(-c2nc(N3CC4CCC(C3)O4)c3sccc3n2)cc1 : 8.07
CNC(=O)Nc1ccc(-c2nc(N3CC4CCC(C3)O4)c3cnn([C@H]4CC[C@@H](OC)CC4)c3n2)cc1 (relative stereo) : 9.48
CO[C@H]1CC[C@H](n2ncc3c(N4CC5CCC(C4)O5)nc(-c4ccc(NC(=O)Nc5ccc(N6CCN(C)CC6)cc5)cc4)nc32)CC1 (relative stereo) : 9.47
O=C(Nc1ccc(-c2nc(N3C[C@H]4C[C@@H]3CO4)c3cnn(CC(F)(F)F)c3n2)cc1)Nc1cccnc1 : 7.77
CCNC(=O)Nc1ccc(-c2nc(N3CC4CCC(C3)O4)c3cnn(C4CCC(OC)CC4)c3n2)cc1 (stereo not shown) : 9.47

a: CNC(=O)Nc1ccc(-c2nc(N3CC4CCC(C3)O4)c3cnn(C4CCC(NCCO)CC4)c3n2)cc1 (stereo not shown)
b: CCNC(=O)Nc1ccc(-c2nc(N3CC4CCC(C3)O4)c3cnn(C(COC)COC)c3n2)cc1
Param metric = pIC50; output whichever of a , b has the minimum value. Give the label of your selection.
b
(b: 8.04, a: 8.35)
